# Target entity: Neu5Ac(a2-3)Gal(b1-4)GlcNAc(b1-2)Man(a1-3)[Neu5Ac(a2-6)Gal(b1-4)GlcNAc(b1-2)Man(a1-6)]Man(b1-4)GlcNAc(b1-4)GlcNAc
# Method summary: glycan array binding signal (z-score within array); higher = stronger binding
# Measurement setup: glycan notation: IUPAC condensed, linker removed
Only a selection was taken, and the strongest signals are over-represented in it overall.
Property measured: glycan array binding signal (z-score)

Some solved entries appear below for comparison.
{"Binder": "Gal 8 (Homo sapiens), O00214_1 (protein) MMLSLNNLQNIIYNPVIPFVGTIPDQLDPGTLIVIRGHVPSDADRFQVDLQNGSSMKPRADVAFHFNPRFKRAGCIVCNTLINEKWGREEITYDTPFKREKSFEIVIMVLKDKFQVAVNGKHTLLYGHRIGPEKIDTLGIYGKVNIHSIGFSFSSDLQSTQASSLELTEISRENVPKSGTPQLRLPFAARLNTPMGPGRTVVVKGEVNANAKSFNVDLLAGKSKDIALHLNPRLNIKAFVRNSFLQESWGEEERNITSFPFSPGMYFEMIIYCDVREFKVAVNGVHSLEYKHRFKELSSIDTLEINGDIHLLEVRSW", "Result": -0.225}
{"Binder": "CM2 (Cordyceps militaris) (protein) MEIAEQNVGKSCAIVNLIPPKEGSNIWTAKQVTIARNLPPNRGTGRHQIDWSFGPVKVTGYVDTTNWEIGVTVSIMGIDLGTVYGNLRDGVVLNVDLFLAKGQVRFYLKNGNEVWVHLSVEIRFDGKFEGDYKIITV", "Result": 0.37}
{"Binder": "Surfactant Protein D (rat); Neck + Carbohydrate Recognition Domain (NCRD) (Rattus norvegicus) (protein) MLLFLLSALVLLTQPLGYLEAEMKTYSHRTMPSACTLVMCSSVESGLPGRDGRDGREGPRGEKGDPGLPGAAGQAGMPGQAGPVGPKGDNGSVGEPGPKGDTGPSGPPGPPGVPGPAGREGALGKQGNIGPQGKPGPKGEAGPKGEVGAPGMQGSAGARGAGPKGERGVPGERGVPGNTGAAGSAGAMGPQGSPGARGPPGLKGDKGIPGDKGAKGESGLPDVASLRQQVEALQGQVQHLQAAFSQYKKVELFPNGQSVGEKIFKTAGFVKPFTEAQLLCTQAGGQLASPRSAAENAALQQLVVAKNEAAFLSMTDSKTEGKFTYPTGESLVYSNWAPGEPNDDGGSEDCVEIFTNGKWNDRACGEKRLVVCEF", "Result": -0.117}
{"Binder": "AT3G44510(29) (Arabidopsis thaliana), F4J341 (protein) MEEHLQGRIKLHDGRYLAYKERGVPKDDAKFTIVLVHGFGSSKDMNFNVSQELVNEIGIYFVLYDRAGYGESDPNPKRSLKSEAYDVQELADGLEIGSRFYLIGISMGSYTVWSCLKHIPQRLAGVAMVAPVVNFRWPSIPKSLMPKDYRREVAKWSVWIANYFPGLLQWLVTQNMFSTTSMLEKNPVYFNDQDIEVLKHIKGFPMLTKEKLRERGVFGTLRSDFLVAFGDWDFDPADLPDPSLSGPEKGSSSVHIWQGYEDKVMPFQLQRCLCRKLPWIRYHEVPKGGHLIVHYDGICDAILKSLLLGEDLPMYKPKAVITEPA", "Result": 2.04}

--- query ---
Problem: I would be grateful if you could share the reported glycan array binding signal (z-score) for Ficolin A (Rattus norvegicus), Q9WTS8 (protein) MWWPMLWAFPVLLCLCSSQALGQESGACPDVKIVGLGAQDKVAVIQSCPSFPGPPGPKGEPGSPAGRGERGLQGSPGKMGPPGSKGEPGTMGPPGVKGEKGERGTASPLGQKELGDALCRRGPRSCKDLLTRGIFLTGWYTIYLPDCRPLTVLCDMDVDGGGWTVFQRRVDGSINFYRDWDSYKRGFGNLGTEFWLGNDYLHLLTANGNQELRVDLREFQGQTSFAKYSSFQVSGEQEKYKLTLGQFLEGTAGDSLTKHNNMAFSTHDQDNDTNGGKNCAALFHGAWWYHDCHQSNLNGRYLPGSHESYADGINWLSGRGHRYSYKVAEMKIRAS .
Solution: -0.027

These data points were gathered from the supplement of paper PMC8728848.
